Each entry below carries its recorded Percent Effect.
- System: Wolbachia pipientis
- test_details: Anti-Wolbachia Cell-Based Screen
- Type: functional
- Parameters: scale not given: in the data most compounds retested in dose-response had high values
- setup_conditions: 5 µM
Among all 48,000 compounds or so, about 13,000 (27%) showed an effect of 50% or more. The list shows a part of the results.
Reply with just the number (in %).

Recorded Percent Effect, per entry:
1) O=C(c1cnnn1-c1ccccc1)N1CCCC(c2ccn[nH]2)C1 (stereo not drawn) :: 106
2) CCn1nc(C)c(CN2CCCC(c3ccc(C(=O)O)cc3)C2)c1C (stereo not drawn) :: 3.316

Next compound, Percent Effect to be filled in.
Entry `CCc1cnc(N2CC[C@@H]3CN(CCC(C)C)S(=O)(=O)[C@@H]3CC2)nc1.O=C(O)C(F)(F)F` — recorded Percent Effect = -2.106

---

- Tested on: Wolbachia pipientis
- test_details: Anti-Wolbachia Cell-Based Screen
- Assay type: functional
- Set-up: scale not given: in the data most compounds retested in dose-response had high values
- setup_conditions: 5 µM
The campaign covered roughly 48,000 compounds. About 13,000 (27%) showed an effect of 50% or more. This is one part of the list.
metric_name: Percent Effect (%)
Reply with just the number (in %).

Recorded Percent Effect, per entry:
1) CCC(C)NC(=O)c1cncc(Br)c1 (centres undefined) :: 12.99
2) COc1cccc(CN2CCC(c3nccn3C(C)C)CC2)c1 :: 7.494
3) Cc1cnc(N2CCc3cc(C(=O)O)c(N(C)C)nc3CC2)nc1.O=C(O)C(F)(F)F :: 100.3

Next compound, Percent Effect to be filled in.
Entry CCC(C)NC(=O)CS(=O)(=O)Cc1cc(C)ccc1C (centres undefined) — recorded Percent Effect = -1.911

---

- System: Wolbachia pipientis
- test_details: Anti-Wolbachia Cell-Based Screen
- Type: functional
- Design: scale not given: in the data most compounds retested in dose-response had high values
- setup_conditions: 5 µM
Hit rate of the full screen: of about 48,000 compounds, about 13,000 (27%) showed an effect of 50% or more. The list shows a part of the results.
metric_name: Percent Effect

1. CC(=O)N1CCOCC2(CCN(Cc3ccc(C)s3)CC2)C1.O=C(O)C(F)(F)F :: -6.944%
2. O=C(c1cnc(-c2ccco2)s1)N1CCCCC1Cn1cccn1 (stereo unspecified) :: 80.46%
3. CN(C)c1nccc(NCc2cc(-c3ccco3)n[nH]2)n1 :: 126.3%

Entry CN(C)S(=O)(=O)N1CCC(OCCCc2ccccc2)C1 (stereo unspecified) — recorded Percent Effect = -12.64%

Entry `Cc1cc(F)ccc1S(=O)(=O)N1CCN(C)Cc2ccccc21` — recorded Percent Effect = -7.823%

Entry `CC(C)CCN(C)C(=O)c1cc(CN2CCC(O)CC2)on1` — recorded Percent Effect = -4.489%

Entry CC(NC(=O)N1CCC(CC(N)=O)CC1)c1csc2ccccc12 (stereo unspecified) — recorded Percent Effect = -9.558%

Entry CN(C)S(=O)(=O)N1CCC(c2c(C(N)=O)sc3ccccc23)C1 (stereo unspecified) — recorded Percent Effect = 94.67%

Entry `CCOCc1cncc2c1CCN(S(=O)(=O)c1ccc(C)cc1)C2` — recorded Percent Effect = 7.269%

Entry `Cn1nc(CN2CCC(c3ccncc3)CC2)c2c(Cl)cccc21` — recorded Percent Effect = -3.245%

Entry `Cc1cc(C)c2nc(CN3CCC(C#N)CC3)cc(O)c2c1` — recorded Percent Effect = -6.492%

Entry `c1coc(-c2nc3c(c(NCc4n[nH]c5c4CCC5)n2)CCNCC3)c1` — recorded Percent Effect = -11.22%

Entry `COc1cccc(S(=O)(=O)N2CCCc3c(OC)nn(C)c3C2)c1` — recorded Percent Effect = -0.459%

Entry `O=C(c1ccc(NC2CC2)nc1)N1CCC(Nc2cccnn2)CC1` — recorded Percent Effect = 118.5%

Entry CC(C)n1c(C2CCCN(CC(=O)NC3CC3)C2)nc2ccccc21 (stereo unspecified) — recorded Percent Effect = -1.015%

Entry CCN(CC)S(=O)(=O)N1CCCC(c2ccc(C(=O)O)cc2)C1 (stereo unspecified) — recorded Percent Effect = -2.613%
